# Experimental target: SARS-CoV-2 NSP3 macrodomain (Mac1), P43 crystal form (Severe acute respiratory syndrome coronavirus 2, UniProt P0DTD1)
# Assay type: binding
# Protocol conditions: occupancy estimate from PanDDA BDC
Reported property: 2*(1-BDC) (%)

- OC1(CNc2ncnc3[nH]ccc23)CCOCC1 [AVI-4314]: 30
- OC1CCN(c2ncnc3[nH]ccc23)C1 (stereo not drawn) [AVI-3661]: 30
- OC1(CNc2ncnc3[nH]ccc23)CCC(F)(F)CC1 [AVI-4308]: 30

---

1-BDC for assorted compounds
# Experimental target: SARS-CoV-2 NSP3 macrodomain (Mac1), P43 crystal form (Severe acute respiratory syndrome coronavirus 2)
# Assay type: binding
# Protocol conditions: PanDDA background density correction
Reported property: 1-BDC

- CC1CCCC(O)(CNc2ncnc3[nH]ccc23)C1 (stereo not shown): 0.17
- OC1(CNc2ncnc3[nH]ccc23)CCCOC1 (stereo not shown): 0.25
- OCC(Cc1c[nH]c2ccccc12)Nc1ncnc2[nH]ccc12 (stereo not shown): 0.15
- c1ccc(-n2nnnc2CSc2nnc(NC3CC3)s2)cc1: 0.11

meta.source: paper doi:10.1101/2024.08.25.609621
